test: in vitro; assay type: cell-based; conditions: human, hff cells
REPORTED ENDPOINT: CC50 (µg/mL)
Give bare numbers, in µg/mL.

// for each compound in input: emit CC50
1. CC(=O)N(O)CCCCCNC(=O)CCC(=O)N(O)CCCCCNC(=O)CCC(=O)N(O)CCCCCN
2. O=C(O)CN(CCN(CC(=O)O)CC(=O)O)CCN(CC(=O)O)CC(=O)O

1. 12
2. 123
